Hey, just so you know, these numbers are from PubChem BioAssay (NCI).

Some molecules, each annotated with its measured TGI.
# System: ACHN renal
# protocol_text: NCI tumour cell line growth inhibition, 48 h
recorded_endpoint: TGI

[
  {
    "molecule": "Cc1ccc(C(=O)C(C)N)cc1C (stereo unspecified)",
    "recorded_endpoint": "TGI",
    "result": "> 100 µM"
  },
  {
    "molecule": "COc1ccc(CNC(=O)c2c(C)n([O-])c3cc(F)c(F)cc3[n+]2=O)cc1",
    "recorded_endpoint": "TGI",
    "result": "30.6 µM"
  },
  {
    "molecule": "COc1cc(C2SC(N)=Nc3c2c(C)nn3C(=O)c2ccc(Cl)cc2)ccc1O (stereo unspecified)",
    "recorded_endpoint": "TGI",
    "result": "> 10 µM"
  },
  {
    "molecule": "O=S1(=O)C=C(c2ccccc2)C(c2ccccc2)=C1",
    "recorded_endpoint": "TGI",
    "result": "2.88 µM"
  },
  {
    "molecule": "Cc1nc2c(s/c(=N\\N)n2-c2ccccc2)c(=O)n1C",
    "recorded_endpoint": "TGI",
    "result": "> 100 µM"
  },
  {
    "molecule": "COc1cc(N(CCC#N)CCC#N)ccc1/C(N=Nc1cccc(C)c1)=N\\NC(=O)c1ccc(C)cc1",
    "recorded_endpoint": "TGI",
    "result": "63 µM"
  },
  {
    "molecule": "N=c1oc2ccc(Cl)cc2cc1C(=O)NC1CCCCC1",
    "recorded_endpoint": "TGI",
    "result": "> 100 µM"
  },
  {
    "molecule": "CCN(CC)c1ccc(N=C2C=CC(=C(C#N)C#N)c3ccccc32)c(C)c1",
    "recorded_endpoint": "TGI",
    "result": "10.9 µM"
  },
  {
    "molecule": "N#CC(CC(=O)O)=C(c1ccccc1)c1ccccc1",
    "recorded_endpoint": "TGI",
    "result": "> 100 µM"
  },
  {
    "molecule": "CCCCn1c2c(n(CCCC)c1=[Se])-c1c(n(CCCC)c(=[Se])n1CCCC)S[Se][Se]S2",
    "recorded_endpoint": "TGI",
    "result": "30.9 µM"
  },
  {
    "molecule": "CC(C)(C)OC(=O)CC(NC(=O)OC(C)(C)C)C(=O)Oc1ccc([N+](=O)[O-])cc1 (stereo unspecified)",
    "recorded_endpoint": "TGI",
    "result": "> 100 µM"
  },
  {
    "molecule": "CC1(C)O[C@@H](CP(c2ccc3ccccc3c2)c2ccc3ccccc3c2)[C@H](CP(c2ccc3ccccc3c2)c2ccc3ccccc3c2)O1",
    "recorded_endpoint": "TGI",
    "result": "> 100 µM"
  },
  {
    "molecule": "CCOC(=O)C1C(=O)c2cccc(OC)c2C2COC(=O)N12 (stereo unspecified)",
    "recorded_endpoint": "TGI",
    "result": "> 100 µM"
  },
  {
    "molecule": "C/C(=N\\NS(=O)(=O)c1ccccc1)c1ccc[n+]([O-])n1",
    "recorded_endpoint": "TGI",
    "result": "> 100 µM"
  },
  {
    "molecule": "O=C(CN1CCN(c2ccccn2)CC1)Nc1ccc(Cl)cc1C(=O)c1ccccc1Cl",
    "recorded_endpoint": "TGI",
    "result": "> 100 µM"
  },
  {
    "molecule": "Nc1nc(Cl)c2ncn(Cc3ccc(-c4ccc(CCl)cc4)cc3)c2n1",
    "recorded_endpoint": "TGI",
    "result": "> 100 µM"
  },
  {
    "molecule": "OCC1(CNc2cc(Cl)ncn2)CCC1",
    "recorded_endpoint": "TGI",
    "result": "> 100 µM"
  },
  {
    "molecule": "CCCNC(=O)c1cc(NC(=O)c2cc(NC(=O)CCS(=O)(=O)OC)cn2C)cn1C",
    "recorded_endpoint": "TGI",
    "result": "> 100 µM"
  },
  {
    "molecule": "C[Si](C)(C)C#CCOC=C1CC1",
    "recorded_endpoint": "TGI",
    "result": "> 100 µM"
  },
  {
    "molecule": "CC(C)[Si](OC1=CCC[C@H]2NC(=O)[C@@H](Cc3ccc([N+](=O)[O-])cc3)[C@@]12C)(C(C)C)C(C)C",
    "recorded_endpoint": "TGI",
    "result": "4.28 µM"
  },
  {
    "molecule": "CC1OC(n2cnc3c(N)nc(Cl)nc32)C(C)(O)C1O (stereo unspecified)",
    "recorded_endpoint": "TGI",
    "result": "> 25 µM"
  }
]
